I'd be grateful if you could share measured PDI for these entries.
Experiment: LNP hydrodynamic size, polydispersity index and zeta potential by Zetasizer
Assay type: physicochemical
Conditions: FLuc mRNA-loaded LNP; Table 1

# count of solved cases: 2
Given the compound CCCCCCC(CCCC)COC(=O)CCCCO[C@H]1CN(CCCCCCO)C[C@H]1OCCCCC(=O)OCC(CCCC)CCCCCC (stereo partly drawn) , write its reported PDI.
0.05

Given the compound CCCCCCCCCCC(CCCCCCCC)COC(=O)CCCCO[C@H]1CN(CCCO)C[C@H]1OCCCCC(=O)OCC(CCCCCCCC)CCCCCCCCCC (stereo partly drawn) , write its reported PDI.
0.03

Kindly consider the entry below.
Given the compound CCCCCCCCCCC(CCCCCCCC)COC(=O)CCCCO[C@H]1CN(CCCCCCO)C[C@H]1OCCCCC(=O)OCC(CCCCCCCC)CCCCCCCCCC (stereo partly drawn) , write its reported PDI.
0.05

---

Assay: LNP hydrodynamic size, polydispersity index and zeta potential by Zetasizer
Type: physicochemical
Settings: FLuc mRNA-loaded LNP; Table 1
recorded endpoint: LNP zeta potential (mV)
Give bare numbers, in mV.

// input: 2 compounds below; output: LNP zeta potential (mV) for each
1. CCCCCCC(CCCC)COC(=O)CCCCO[C@H]1CN(CCCCCO)C[C@H]1OCCCCC(=O)OCC(CCCC)CCCCCC (stereo partly drawn) [Compound 21]
2. CCCCCCCCC(CCCCCCCC)OC(=O)CCO[C@H]1CN(CCCCO)C[C@H]1OCCC(=O)OC(CCCCCCCC)CCCCCCCC [Compound 7]

14.91
2.41

// input: 4 compounds below; output: LNP zeta potential (mV) for each
1. CCCCCCCCCCC(CCCCCCCC)COC(=O)CCCCO[C@H]1CN(CCCO)C[C@H]1OCCCCC(=O)OCC(CCCCCCCC)CCCCCCCCCC (stereo partly drawn) [Compound 17]
2. CCCCCCCCC(CCCCCCCC)OC(=O)CCCCO[C@H]1CN(CCCO)C[C@H]1OCCCCC(=O)OC(CCCCCCCC)CCCCCCCC [Compound 3]
3. CCCCCCCCCCC(CCCCCCCC)COC(=O)CCCCO[C@H]1CN(CCCCCCO)C[C@H]1OCCCCC(=O)OCC(CCCCCCCC)CCCCCCCCCC (stereo partly drawn) [Compound 19]
4. CCCCCCC(CCCC)COC(=O)CCCCO[C@H]1CN(CCCO)C[C@H]1OCCCCC(=O)OCC(CCCC)CCCCCC (stereo partly drawn) [Compound 20]

1. 8.00
2. 6.98
3. 6.25
4. 15.00

---

Assay: LNP hydrodynamic size, polydispersity index and zeta potential by Zetasizer
Type: physicochemical
Details: FLuc mRNA-loaded LNP; Table 1
Is PDI at least 0.03? Then 1 (yes). If not, 0 (no).

Solved entries (count: 3):
Has CCCCCCCCC(CCCCCCCC)OC(=O)CCCCCO[C@H]1CN(CCCO)C[C@H]1OCCCCCC(=O)OC(CCCCCCCC)CCCCCCCC a recorded PDI greater than or equal to 0.03?
0 (no)

Has CCCCCCCCC(CCCCCCCC)OC(=O)CCO[C@H]1CN(CCO)C[C@H]1OCCC(=O)OC(CCCCCCCC)CCCCCCCC a recorded PDI greater than or equal to 0.03?
0 (no)

Has CCCCCCC(CCCC)COC(=O)CCCCO[C@H]1CN(CCCO)C[C@H]1OCCCCC(=O)OCC(CCCC)CCCCCC (stereo partly shown) a recorded PDI greater than or equal to 0.03?
1 (yes)

Further cases:
Has CCCCCCCCC(CCCCCCCC)OC(=O)CCCCO[C@H]1CN(CCO)C[C@H]1OCCCCC(=O)OC(CCCCCCCC)CCCCCCCC a recorded PDI greater than or equal to 0.03?
0 (no)

Has CCCCCCCCC(CCCCCCCC)OC(=O)CCO[C@H]1CN(CCCCO)C[C@H]1OCCC(=O)OC(CCCCCCCC)CCCCCCCC a recorded PDI greater than or equal to 0.03?
0 (no)

Has CCCCCCCCC(CCCCCCCC)OC(=O)CCCCCO[C@H]1CN(CCCCO)C[C@H]1OCCCCCC(=O)OC(CCCCCCCC)CCCCCCCC a recorded PDI greater than or equal to 0.03?
1 (yes)

---

Assay: LNP hydrodynamic size, polydispersity index and zeta potential by Zetasizer
Type: physicochemical
Conditions: FLuc mRNA-loaded LNP; Table 1
recorded endpoint: PDI

# count of solved cases: 3
Given the molecule CCCCCCCCC(CCCCCCCC)OC(=O)CCCCCO[C@H]1CN(CCCCCO)C[C@H]1OCCCCCC(=O)OC(CCCCCCCC)CCCCCCCC , write its reported PDI.
0.039

Given the molecule CCCCCCCCC(CCCCCCCC)OC(=O)CCCCO[C@H]1CN(CCCO)C[C@H]1OCCCCC(=O)OC(CCCCCCCC)CCCCCCCC , write its reported PDI.
0.016

Given the molecule CCCCCCCCC(CCCCCCCC)OC(=O)CCO[C@H]1CN(CCCO)C[C@H]1OCCC(=O)OC(CCCCCCCC)CCCCCCCC , write its reported PDI.
0.033

Further cases:
Given the molecule CCCCCCC(CCCC)COC(=O)CCCCO[C@H]1CN(CCCCCO)C[C@H]1OCCCCC(=O)OCC(CCCC)CCCCCC (stereo partly shown) , write its reported PDI.
0.0532

---

Assay: LNP hydrodynamic size, polydispersity index and zeta potential by Zetasizer
Type: physicochemical
Settings: z-average diameter, FLuc mRNA-loaded LNP; Table 1
recorded endpoint: LNP size (nm)
Answers are plain numbers, in nm.

# count of solved cases: 5
Given the compound CCCCCCCCC(CCCCCCCC)OC(=O)CCO[C@H]1CN(CCCCO)C[C@H]1OCCC(=O)OC(CCCCCCCC)CCCCCCCC , write its reported LNP size (nm).
87.10

Given the compound CCCCCCC(CCCC)COC(=O)CCCCO[C@H]1CN(CCCO)C[C@H]1OCCCCC(=O)OCC(CCCC)CCCCCC (some centres unmarked) , write its reported LNP size (nm).
88.33

Given the compound CCCCCCC(CCCC)COC(=O)CCCCO[C@H]1CN(CCCCCO)C[C@H]1OCCCCC(=O)OCC(CCCC)CCCCCC (some centres unmarked) , write its reported LNP size (nm).
93.39

Given the compound CCCCCCCCC(CCCCCCCC)OC(=O)CCO[C@H]1CN(CCO)C[C@H]1OCCC(=O)OC(CCCCCCCC)CCCCCCCC , write its reported LNP size (nm).
73.80

Given the compound CCCCCCCCC(CCCCCCCC)OC(=O)CCO[C@H]1CN(CCCO)C[C@H]1OCCC(=O)OC(CCCCCCCC)CCCCCCCC , write its reported LNP size (nm).
74.65

// input: 5 compounds below; output: LNP size (nm) for each
1. CCCCCCCCC(CCCCCCCC)OC(=O)CCCCCO[C@H]1CN(CCCCO)C[C@H]1OCCCCCC(=O)OC(CCCCCCCC)CCCCCCCC
2. CCCCCCCCCCC(CCCCCCCC)COC(=O)CCCCO[C@H]1CN(CCCO)C[C@H]1OCCCCC(=O)OCC(CCCCCCCC)CCCCCCCCCC (some centres unmarked)
3. CCCCCCCCC(CCCCCCCC)OC(=O)CCCCO[C@H]1CN(CCCO)C[C@H]1OCCCCC(=O)OC(CCCCCCCC)CCCCCCCC
4. CCCCCCCCC(CCCCCCCC)OC(=O)CCCCO[C@H]1CN(CCO)C[C@H]1OCCCCC(=O)OC(CCCCCCCC)CCCCCCCC
5. CCCCCCC(CCCC)COC(=O)CCCCO[C@H]1CN(CCCCCCO)C[C@H]1OCCCCC(=O)OCC(CCCC)CCCCCC (some centres unmarked)

[81.29, 95.10, 98.84, 79.20, 148.20]

---

Test: mRNA encapsulation efficiency by RiboGreen assay
Format: physicochemical
Conditions: FLuc mRNA-loaded LNP made with the lipid; Table 1
recorded endpoint: Encap)-sulation (% (%)
Numbers only, in %.

# count of solved cases: 4
Given the compound CCCCCCCCC(CCCCCCCC)OC(=O)CCCCCO[C@H]1CN(CCCCO)C[C@H]1OCCCCCC(=O)OC(CCCCCCCC)CCCCCCCC , write its reported Encap)-sulation (%.
97.39

Given the compound CCCCCCCCC(CCCCCCCC)OC(=O)CCO[C@H]1CN(CCCCO)C[C@H]1OCCC(=O)OC(CCCCCCCC)CCCCCCCC , write its reported Encap)-sulation (%.
97.22

Given the compound CCCCCCCCC(CCCCCCCC)OC(=O)CCCCCO[C@H]1CN(CCCCCO)C[C@H]1OCCCCCC(=O)OC(CCCCCCCC)CCCCCCCC , write its reported Encap)-sulation (%.
96.99

Given the compound CCCCCCCCCCC(CCCCCCCC)COC(=O)CCCCO[C@H]1CN(CCCCCO)C[C@H]1OCCCCC(=O)OCC(CCCCCCCC)CCCCCCCCCC (some centres unmarked) , write its reported Encap)-sulation (%.
97.57

// input: 7 compounds below; output: Encap)-sulation (% for each
1. CCCCCCC(CCCC)COC(=O)CCCCO[C@H]1CN(CCCCCO)C[C@H]1OCCCCC(=O)OCC(CCCC)CCCCCC (some centres unmarked)
2. CCCCCCC(CCCC)COC(=O)CCCCO[C@H]1CN(CCCCCCO)C[C@H]1OCCCCC(=O)OCC(CCCC)CCCCCC (some centres unmarked)
3. CCCCCCCCC(CCCCCCCC)OC(=O)CCO[C@H]1CN(CCCO)C[C@H]1OCCC(=O)OC(CCCCCCCC)CCCCCCCC
4. CCCCCCCCCCC(CCCCCCCC)COC(=O)CCCCO[C@H]1CN(CCCCCCO)C[C@H]1OCCCCC(=O)OCC(CCCCCCCC)CCCCCCCCCC (some centres unmarked)
5. CCCCCCCCC(CCCCCCCC)OC(=O)CCCCCO[C@H]1CN(CCCO)C[C@H]1OCCCCCC(=O)OC(CCCCCCCC)CCCCCCCC
6. CCCCCCC(CCCC)COC(=O)CCCCO[C@H]1CN(CCCO)C[C@H]1OCCCCC(=O)OCC(CCCC)CCCCCC (some centres unmarked)
7. CCCCCCCCC(CCCCCCCC)OC(=O)CCCCO[C@H]1CN(CCCO)C[C@H]1OCCCCC(=O)OC(CCCCCCCC)CCCCCCCC

[98.87, 98.18, 98.1, 97.31, 97.58, 97.36, 97.92]

// input: 2 compounds below; output: Encap)-sulation (% for each
1. CCCCCCCCC(CCCCCCCC)OC(=O)CCCCO[C@H]1CN(CCO)C[C@H]1OCCCCC(=O)OC(CCCCCCCC)CCCCCCCC
2. CCCCCCCCCCC(CCCCCCCC)COC(=O)CCCCO[C@H]1CN(CCCO)C[C@H]1OCCCCC(=O)OCC(CCCCCCCC)CCCCCCCCCC (some centres unmarked)

1. 98.43
2. 98.16

Given the compound CCCCCCCCC(CCCCCCCC)OC(=O)CCO[C@H]1CN(CCO)C[C@H]1OCCC(=O)OC(CCCCCCCC)CCCCCCCC , write its reported Encap)-sulation (%.
98.5
